Target: DN-III quality control recombinant protein (produced by Fapon Biotech InC.) (dengue virus)
Test: BLI, AMC sensor, antibody captured
property-name: kon (M⁻¹ s⁻¹)
Unit M⁻¹ s⁻¹ implied. Number only.

(Q) Please report the recorded kon for Mutation 1-7 (antibody, V domains shown) VH: EVQLQQSGTELVRPGALVKLSCKASGFNIKDYYIHWVKQRPRQGLEWIGWIDPENGKTLYDPKFQDKASITSDTSTNTAYLQLRSLTSEDTAVYYCVTAYFRFVYWGQGTLVTVSA VL: QIVLTQSPAIMSAFPGERVTMTCSASSSVRYMYWHQQKPGSSPRLLIYDTSNLASGVPVRFSGSGSGTSYSLTISRDEAMDAATYYCQQWSSYPRTFGGGTKLEIKR .
(A) 357000

(Q) Data request, read-out kon, for WT 1-7 (antibody, V domains shown) VH: EVQLQQSGTELVRPGALVKLSCKASGFNIKEYYVHWVKQRPRQGLEWIGWIDPDNGKTIYDPKVQDKASITSDTSTNTAYLQLRSLTSEDTAVYYCVSAYVRFVYWGQGTLVTVSA VL: QIVLTQSPAIMSAFPGERVTMTCSASTSVKYMYWHQQKPGSSPRLLIYETSNVASGFPVRFSGSGSGTSYSLTISRDEAMDAATYYCQQQSSTPRTFGGGTKLEIKR
(A) 4090
